// data source = PubChem BioAssay AID1963842

Reported pIC50 by item:
Test system: 677734-321-R-J1-PDC complex spheroid viability
Assay: Anticancer human tumor 677734-321-R-J1-PDC patient-derived soft tissue sarcoma cell line growth inhibition [POLQ]
Settings: curve of first compound; second compound 1 µM
pIC50: −log10 of the molar value.

Examples with their reported pIC50 follow.
C=CCn1c(=O)c2cnc(Nc3ccc(N4CCN(C)CC4)cc3)nc2n1-c1cccc(C(C)(C)O)n1 + COC1C(OC(N)=O)C(O)C(Oc2ccc3c(O)c(NC(=O)c4ccc(O)c(CC=C(C)C)c4)c(=O)oc3c2C)OC1(C)C	< 6.00
CCc1c2c(nc3ccc(O)cc13)-c1cc3c(c(=O)n1C2)COC(=O)[C@]3(O)CC + COC1C(OC(N)=O)C(O)C(Oc2ccc3c(O)c(NC(=O)c4ccc(O)c(CC=C(C)C)c4)c(=O)oc3c2C)OC1(C)C	> 8.50

Now look at this one.
# input Tell me measured pIC50 for Cn1ncnc1[C@H]1c2n[nH]c(=O)c3cc(F)cc(c23)N[C@@H]1c1ccc(F)cc1 + Nc1ccc(C#CCN(C(=O)Cc2ncc(C(F)(F)F)cc2C(F)(F)F)c2ccc(F)cc2)nn1 please.
# output < 7.00

====

Reported viability, T/C by item:
System: 677734-321-R-J1-PDC complex spheroid viability
Assay: Anticancer human tumor 677734-321-R-J1-PDC cell line growth inhibition [POLQ];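 note: spheroids exposed to compounds for one week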;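 for viability, T/C: 100% = vehicle DMSO treated spheroids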
Details: second compound 0.1 µM; first compound 10 µM; stronger effect = lower value
Protocol: Multicellular complex tumor spheroid response to Polymerase (POL) inhibitors (novobiocin, ART-558, RP6685) in combination with a variety of drugs and investigational agents in selected tumor cell lines The POL inhibitors (novobiocin, ART-558, and RP6685) were evaluated both individually and in combination with standard of care and investigational anticancer small molecules within a complex spheroid model of solid tumors. . […]
Give a bare numeral; the unit % is implied.

Examples with their reported viability, T/C follow.
C=CC(=O)N1CCN(c2nc(=O)n(-c3c(C)ccnc3C(C)C)c3nc(-c4c(O)cccc4F)c(F)cc23)C(C)C1 (stereo not given) + Nc1ccc(C#CCN(C(=O)Cc2ncc(C(F)(F)F)cc2C(F)(F)F)c2ccc(F)cc2)nn1	63.5
COc1ccc([C@@H](O)c2cc(-c3ncnc4cc(N5CCOCC5)ccc34)c(F)cc2Cl)nn1 + Nc1ccc(C#CCN(C(=O)Cc2ncc(C(F)(F)F)cc2C(F)(F)F)c2ccc(F)cc2)nn1	47.8
CC1COCCN1c1cc(C2(S(C)(=N)=O)CC2)nc(-c2ccnc3[nH]ccc23)n1 (stereo not given) + Cc1cccc(N(C)C(=O)C2C(O)CCN2c2nc(C)cc(C(F)(F)F)c2C#N)c1	28.6
Nc1ccn(C2OC(CO)C(O)C2(F)F)c(=O)n1 (stereo not given) + Cc1cccc(N(C)C(=O)C2C(O)CCN2c2nc(C)cc(C(F)(F)F)c2C#N)c1	11

Now look at this one.
# input Tell me measured viability, T/C for O=C(Nc1ccc(O)c(NS(=O)(=O)c2ccc(F)cc2)c1)c1ccc(-c2ccccc2)cc1 + COC1C(OC(N)=O)C(O)C(Oc2ccc3c(O)c(NC(=O)c4ccc(O)c(CC=C(C)C)c4)c(=O)oc3c2C)OC1(C)C please.
# output 33.8

====

Reported viability, T/C by item:
System: 677734-321-R-J1-PDC complex spheroid viability
Test: Anticancer human tumor 677734-321-R-J1-PDC cell line growth inhibition [POLQ];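 note: spheroids exposed to compounds for one week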;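 for viability, T/C: 100% = vehicle DMSO treated spheroids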
Conditions: second compound 0.316 µM; first compound 0.000316 µM; stronger effect = lower value
Give a bare numeral; the unit % is implied.

Cn1ncnc1[C@H]1c2n[nH]c(=O)c3cc(F)cc(c23)N[C@@H]1c1ccc(F)cc1 + Nc1ccc(C#CCN(C(=O)Cc2ncc(C(F)(F)F)cc2C(F)(F)F)c2ccc(F)cc2)nn1	113

# input Tell me measured viability, T/C for CC[C@@]1(O)C(=O)OCc2c1cc1n(c2=O)Cc2cc3c(CN(C)C)c(O)ccc3nc2-1 + Nc1ccc(C#CCN(C(=O)Cc2ncc(C(F)(F)F)cc2C(F)(F)F)c2ccc(F)cc2)nn1 please.
# output 116

====

Test system: 677734-321-R-J1-PDC complex spheroid viability
Test: Anticancer human tumor 677734-321-R-J1-PDC cell line growth inhibition [POLQ]; active means viability on the fitted dose curve at most 10% of control; inactive means the rest;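 note: spheroids exposed to compounds for one week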
Settings: second compound 0.0316 µM; first compound 0.316 µM
Permitted responses: true (1) (active), false (0) (inactive)

CC1COCCN1c1cc(C2(O)CC3CCC(C2)O3)c2cnn(-c3ccn[nH]3)c2n1 (stereo not given) + COC1C(OC(N)=O)C(O)C(Oc2ccc3c(O)c(NC(=O)c4ccc(O)c(CC=C(C)C)c4)c(=O)oc3c2C)OC1(C)C	false (0)

# input Assay outcome for CC1COCCN1c1cc(C2(S(C)(=N)=O)CC2)nc(-c2ccnc3[nH]ccc23)n1 (stereo not given) + Cc1cccc(N(C)C(=O)C2C(O)CCN2c2nc(C)cc(C(F)(F)F)c2C#N)c1 : what was it?
# output false (0)

# input Assay outcome for C=CCn1c(=O)c2cnc(Nc3ccc(N4CCN(C)CC4)cc3)nc2n1-c1cccc(C(C)(C)O)n1 + Nc1ccc(C#CCN(C(=O)Cc2ncc(C(F)(F)F)cc2C(F)(F)F)c2ccc(F)cc2)nn1 : what was it?
# output false (0)

# input Assay outcome for C#Cc1c(F)ccc2cc(O)cc(-c3ncc4c(N5CC6CCC(C5)N6)nc(OCC56CCCN5CC(F)C6)nc4c3F)c12 (stereo not given) + Nc1ccc(C#CCN(C(=O)Cc2ncc(C(F)(F)F)cc2C(F)(F)F)c2ccc(F)cc2)nn1 : what was it?
# output false (0)

# input Assay outcome for COc1cccc2c1C(=O)c1c(O)c3c(c(O)c1C2=O)CC(O)(C(=O)CO)CC3OC1CC(N)C(O)C(C)O1 (stereo not given) + Nc1ccc(C#CCN(C(=O)Cc2ncc(C(F)(F)F)cc2C(F)(F)F)c2ccc(F)cc2)nn1 : what was it?
# output true (1)

====

Tested on: 677734-321-R-J1-PDC complex spheroid viability
Experiment: Anticancer human tumor 677734-321-R-J1-PDC cell line growth inhibition [POLQ]; active = viability on the fitted dose curve at most 10% of control; inactive = the rest;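 note: spheroids exposed to compounds for one week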
Details: second compound 0.0316 µM; first compound 0.316 µM
Permitted responses: class 1 (active), class 0 (inactive)

Reference set (4 entries):
CCc1cc2c(N3CCc4c(cc(Cn5ccnc5)cc4-c4cn(C)nc4C(F)(F)F)C3=O)cc(C)nc2c(OC)n1 + Cc1cccc(N(C)C(=O)C2C(O)CCN2c2nc(C)cc(C(F)(F)F)c2C#N)c1	class 0
COc1cccc(OCCCN)c1-c1cc(Nc2cnc(C#N)cn2)n[nH]1 + Cc1cccc(N(C)C(=O)C2C(O)CCN2c2nc(C)cc(C(F)(F)F)c2C#N)c1	class 1
COc1cc2cc(C(=O)CCC(=O)O)sc2cc1OC + Nc1ccc(C#CCN(C(=O)Cc2ncc(C(F)(F)F)cc2C(F)(F)F)c2ccc(F)cc2)nn1	class 0
CCCS(=O)(=O)Nc1ccc(F)c(C(=O)c2c[nH]c3ncc(-c4ccc(Cl)cc4)cc23)c1F + COC1C(OC(N)=O)C(O)C(Oc2ccc3c(O)c(NC(=O)c4ccc(O)c(CC=C(C)C)c4)c(=O)oc3c2C)OC1(C)C	class 0

Please look at the following molecule next.
# input Assay outcome for CC(C)n1c(=O)n(C)c2cnc3cc(F)c(-c4ccc(OCCCN5CCCCC5)nc4)cc3c21 + Cc1cccc(N(C)C(=O)C2C(O)CCN2c2nc(C)cc(C(F)(F)F)c2C#N)c1 : what was it?
# output class 0

====

System: 677734-321-R-J1-PDC complex spheroid viability
Test: Anticancer human tumor 677734-321-R-J1-PDC cell line growth inhibition [POLQ];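 note: spheroids exposed to compounds for one week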;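 for viability, T/C: 100% = vehicle DMSO treated spheroids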
Conditions: second compound 10 µM; first compound 0.316 µM; stronger effect = lower value
One threshold, 90%, splits the recorded viability, T/C values: lower ones are satisfied, equal or higher ones are not satisfied.

Reference set (3 entries):
CC(C)n1c(=O)n(C)c2cnc3cc(F)c(-c4ccc(OCCCN5CCCCC5)nc4)cc3c21 + Cc1cccc(N(C)C(=O)C2C(O)CCN2c2nc(C)cc(C(F)(F)F)c2C#N)c1	not satisfied
CCc1cc2c(N3CCc4c(cc(Cn5ccnc5)cc4-c4cn(C)nc4C(F)(F)F)C3=O)ccnc2c(OC)n1 + Nc1ccc(C#CCN(C(=O)Cc2ncc(C(F)(F)F)cc2C(F)(F)F)c2ccc(F)cc2)nn1	satisfied
CC1COCCN1c1cc(C2(S(C)(=N)=O)CC2)nc(-c2ccnc3[nH]ccc23)n1 (stereo not given) + COC1C(OC(N)=O)C(O)C(Oc2ccc3c(O)c(NC(=O)c4ccc(O)c(CC=C(C)C)c4)c(=O)oc3c2C)OC1(C)C	not satisfied

# input In plain terms, does CCc1c2c(nc3ccc(O)cc13)-c1cc3c(c(=O)n1C2)COC(=O)[C@]3(O)CC + Nc1ccc(C#CCN(C(=O)Cc2ncc(C(F)(F)F)cc2C(F)(F)F)c2ccc(F)cc2)nn1 come in under 90% for viability, T/C?
# output satisfied

====

System: 677734-321-R-J1-PDC complex spheroid viability
Test: Anticancer human tumor 677734-321-R-J1-PDC cell line growth inhibition [POLQ];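 note: spheroids exposed to compounds for one week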;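 for viability, T/C: 100% = vehicle DMSO treated spheroids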
Settings: second compound 1 µM; first compound 0.0316 µM; stronger effect = lower value
Reported viability, T/C by item:
Give a bare numeral; the unit % is implied.

CC1COCCN1c1cc(C2(S(C)(=N)=O)CC2)nc(-c2ccnc3[nH]ccc23)n1 (configuration not stated) + Nc1ccc(C#CCN(C(=O)Cc2ncc(C(F)(F)F)cc2C(F)(F)F)c2ccc(F)cc2)nn1	118
CCc1cc2c(N3CCc4c(cc(Cn5ccnc5)cc4-c4cn(C)nc4C(F)(F)F)C3=O)cc(C)nc2c(OC)n1 + Cc1cccc(N(C)C(=O)C2C(O)CCN2c2nc(C)cc(C(F)(F)F)c2C#N)c1	111

# input Tell me measured viability, T/C for CC[C@@]1(O)C(=O)OCc2c1cc1n(c2=O)Cc2cc3c(CN(C)C)c(O)ccc3nc2-1 + Nc1ccc(C#CCN(C(=O)Cc2ncc(C(F)(F)F)cc2C(F)(F)F)c2ccc(F)cc2)nn1 please.
# output 33.6

# input Tell me measured viability, T/C for CCc1cc2c(N3CCc4c(cc(Cn5ccnc5)cc4-c4cn(C)nc4C(F)(F)F)C3=O)ccnc2c(OC)n1 + COC1C(OC(N)=O)C(O)C(Oc2ccc3c(O)c(NC(=O)c4ccc(O)c(CC=C(C)C)c4)c(=O)oc3c2C)OC1(C)C please.
# output 113

# input Tell me measured viability, T/C for C=CC(=O)N1CCN(c2nc(=O)n(-c3c(C)ccnc3C(C)C)c3nc(-c4c(O)cccc4F)c(F)cc23)C(C)C1 (configuration not stated) + Cc1cccc(N(C)C(=O)C2C(O)CCN2c2nc(C)cc(C(F)(F)F)c2C#N)c1 please.
# output 109

# input Tell me measured viability, T/C for CCc1c2c(nc3ccc(O)cc13)-c1cc3c(c(=O)n1C2)COC(=O)[C@]3(O)CC + Nc1ccc(C#CCN(C(=O)Cc2ncc(C(F)(F)F)cc2C(F)(F)F)c2ccc(F)cc2)nn1 please.
# output 5.38

# input Tell me measured viability, T/C for CCCS(=O)(=O)Nc1ccc(F)c(C(=O)c2c[nH]c3ncc(-c4ccc(Cl)cc4)cc23)c1F + Cc1cccc(N(C)C(=O)C2C(O)CCN2c2nc(C)cc(C(F)(F)F)c2C#N)c1 please.
# output 101
